# Tested on: human tumor cell lines (approximately 60)
# assay.protocol: NCI in vitro human tumor cell line screen (SRB), mean graph midpoints over all cell lines
# Type: cell-based
# condition.notes: Homo sapiens; average of all cell lines; log10 of molar concentration; 48 h; read-out: log10 I50 (log10 GI50 mean graph midpoint) (converted)
# note: boundary value 2 µM maps to Criterion not met; GI50 below it maps to Criterion met

See these solved cases before continuing.
compound.smiles: CCCCCCCCCCCCOC[C@@]12O[C@@H](CN3CCCCCC3)[C@@H](OCCN3CCOCC3)[C@@H]1OC(C)(C)O2
subject.of.test: human tumor cell lines (approximately 60)
class.label: Criterion met

compound.smiles: CCCCCCCCCCCCOC[C@@]12O[C@@H](CN3CCCCCC3)[C@@H](O)[C@@H]1OC(C)(C)O2
subject.of.test: human tumor cell lines (approximately 60)
class.label: Criterion met

compound.smiles: CCCCCCCCCCCCOC[C@@]12O[C@@H](C)[C@@H](OCCN3CCCC3)[C@@H]1OC(C)(C)O2
subject.of.test: human tumor cell lines (approximately 60)
class.label: Criterion not met

compound.smiles: CCCCCCCCCCCCOC[C@@]12O[C@@H](CN3CCCCCC3)[C@@H](OCCN3CCCCC3)[C@@H]1OC(C)(C)O2
subject.of.test: human tumor cell lines (approximately 60)
class.label: Criterion met

compound.smiles: CCCCCCCCCCCCOC[C@@]12O[C@@H](CNCCN3CCOCC3)[C@@H](O)[C@@H]1OC(C)(C)O2
subject.of.test: human tumor cell lines (approximately 60)
class.label: Criterion not met

compound.smiles: CCCCCCCCCCCCOC[C@@]12O[C@@H](CN3CCCCCC3)[C@@H](OCCCc3ccccc3)[C@@H]1OC(C)(C)O2
subject.of.test: human tumor cell lines (approximately 60)
class.label: Criterion not met

compound.smiles: CCCCCCCCCCCCOC[C@@]12O[C@@H](C)[C@@H](OCCN3CCCCC3)[C@@H]1OC(C)(C)O2
subject.of.test: human tumor cell lines (approximately 60)
class.label: Criterion not met

compound.smiles: CCCCCCCCCCCCOC[C@@]12O[C@@H](CNCCN3CCCCC3)[C@@H](O)[C@@H]1OC(C)(C)O2
subject.of.test: human tumor cell lines (approximately 60)
class.label: Criterion not met

compound.smiles: CCCCCCCCCCCCOC[C@@]12O[C@@H](CN3CCCCCC3)[C@@H](OCCN3CCCC3)[C@@H]1OC(C)(C)O2
subject.of.test: human tumor cell lines (approximately 60)
class.label: Criterion met

compound.smiles: CCCCCCCCCCCCOC[C@@]12O[C@@H](C)[C@@H](OCCN3CCOCC3)[C@@H]1OC(C)(C)O2
subject.of.test: human tumor cell lines (approximately 60)
class.label: Criterion not met

Please let me know if `CCCCCCCCCCCCOC[C@@]12O[C@@H](CN3CCCC3)[C@@H](O)[C@@H]1OC(C)(C)O2` shows GI50 below 2 µM.
Criterion met

Please let me know if `CCCCCCCCCCCCOC[C@@]12O[C@@H](CN3CCCCCC3)[C@@H](OCCCN3CCCCC3)[C@@H]1OC(C)(C)O2` shows GI50 below 2 µM.
Criterion met

Please let me know if `CCCCCCCCCCCCOC[C@@]12O[C@@H](CN3CCOCC3)[C@@H](O)[C@@H]1OC(C)(C)O2` shows GI50 below 2 µM.
Criterion not met

Where do the numbers come from? From patent US5637570A.
